Just for reference, paper PMC3877065 is where these values come from.

B1: C-terminal octapeptide of Hsp90 (TSRMEEVD) [not stated] / TPR domain of AtToc64 with a C-terminal hexa-histidine tag (AtToc64_TPR-H6) [Arabidopsis thaliana] (parent complex)
chain 1: TSRMEEVD
chain 2: AEIAKEKGNQAFKEKLWQKAIGLYSEAIKLSDNNATYYSNRAAAYLELGGFLQAEEDCTKAITLDKKNVKAYLRRGTAREMLGDCKGAIEDFRYALVLEPNNKRASLSAERLRKFQ

Variants of: B1
Experiment: ITC; parent: 2.18e+05 nM
This listing pairs variants with measured pKd.
Interpret pKd as the negative base-10 log of the concentration measured in mol/L.

// solved cases for pKd follow
- variant_name: "chain 1 D8A"
  numeric_readout: 2.85
- variant_name: "chain 1 M4A"
  numeric_readout: 2.97

Turning to the following variant.
Item chain 1 E6A has what recorded pKd?
2.72
